Reported values of pIC50 for individual entries
Target protein (sequence): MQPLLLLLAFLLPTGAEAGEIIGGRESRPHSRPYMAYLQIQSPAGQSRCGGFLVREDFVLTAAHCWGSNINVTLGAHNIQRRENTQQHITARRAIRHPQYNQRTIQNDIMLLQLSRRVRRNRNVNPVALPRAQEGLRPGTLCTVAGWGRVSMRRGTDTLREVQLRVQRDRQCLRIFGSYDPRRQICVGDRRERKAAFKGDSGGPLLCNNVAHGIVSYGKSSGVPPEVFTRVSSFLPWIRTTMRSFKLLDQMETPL
Recall that pIC50 is obtained by taking minus log10 of the concentration measured in molar.

{"columns": ["molecule", "pIC50"],
 "data": [
  ["COc1ccc2c(c1)CCc1c(C(=O)Nc3cc(C)n(Cc4ccc(Cl)cc4)n3)noc1-2", 5.83],
  ["Cc1ccccc1Cn1nc(C)c(NC(=O)c2noc3c2CCc2ccccc2-3)c1C", 5.19]
]}

Reported pIC50 ( "CC[C@@H](C)[C@H](NC(=O)OC(C)(C)C)c1nnc(S(=O)(=O)Cc2cc(C)ccc2C)o1" ) = 4.69

Reported pIC50 ( O=c1oc(-c2ccco2)nc2ccccc12 [2-Furan-2-yl-benzo[d][1,3]oxazin-4-one] ) = 6.10

Reported pIC50 ( "O=C(NCCc1ccccc1)c1noc2c1CCc1ccccc1-2" ) = 5.60

Reported pIC50 ( "Cc1cc(NC(=O)c2noc3c2CCc2ccccc2-3)no1" ) = 5.37

Reported pIC50 ( "Nc1nncn1C(=O)c1cccs1" ) = 4.55

====

biological target: Cathepsin G (Homo sapiens, UniProt P08311)
observation type: pIC50
Recall that pIC50 is obtained by taking minus log10 of the concentration measured in molar.

{"columns": ["compound", "system under test", "observed result"],
 "data": [
  ["O=C(c1csc2ccccc12)n1cccn1 [MLS000065687]", "Cathepsin G (Homo sapiens, UniProt P08311)", 5.36],
  ["CCOC(=O)c1ccc(/N=C/c2nc(-c3ccccc3)oc2OC(C)=O)cc1 [MLS000027596]", "Cathepsin G (Homo sapiens, UniProt P08311)", 4.67],
  ["COc1ccccc1-c1cc(C(=O)NCc2ccccc2)no1", "Cathepsin G (Homo sapiens, UniProt P08311)", 4.88],
  ["COc1ccc2c(c1)CCc1c(C(=O)NCc3cccnc3)noc1-2", "Cathepsin G (Homo sapiens, UniProt P08311)", 5.86],
  ["COc1ccc(OC)c(-c2cc(C(=O)Nc3c(C)nn(Cc4ccccc4)c3C)no2)c1", "Cathepsin G (Homo sapiens, UniProt P08311)", 4.48]
]}

Reported pIC50 ( Nc1cc(OC(=O)c2cccs2)nn1S(=O)(=O)c1ccccc1 [SMR000021562] ) = 5.49

Reported pIC50 ( COc1ccccc1/N=C/c1nc(-c2ccccc2)oc1OC(C)=O [SMR000039734] ) = 4.42

Reported pIC50 ( "Cn1cnnc1SCc1ccc(C(=O)n2ncc(C#N)c2N)cc1" ) = 5.41

Reported pIC50 ( "CCSc1ccccc1C(=O)n1nnc2ccccc21" ) = 5.01

Reported pIC50 ( COc1ccc(-c2cc(C(=O)Nc3c(C)nn(Cc4ccccc4Cl)c3C)no2)cc1 [MLS000087058] ) = 4.35

Reported pIC50 ( O=c1oc(-c2cccnc2)nc2ccccc12 [2-(3-pyridinyl)-3,1-benzoxazin-4-one] ) = 5.56
